Every entry's value here was drawn from patent US20190144529A1.

Please provide measured kon for the entries that follow.
Target: T1, human serum albumin (human, UniProt P02768 25-609)
T1 construct: mature; Bought purified serum albumin; also called HSA; Human albumin
Experiment: SPR, Fab captured; albumin taken as HSA;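 also: antibody held on a capture surface, albumin injected for 3 min association then dissociation followed, signals corrected using a blank reference flow cell and buffer-only injections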
Just the number in M⁻¹ s⁻¹, nothing appended.

Q. Query (binder): CA645 gL35gH5 Fab (Fab, V domains shown, Fab: human gamma1 CH1, human kappa (Km3); Kabat numbering) VH: EVQLLESGGGLVQPGGSLRLSCAVSGIDLSNYAINWVRQAPGKGLEWIGIIWASGTTFYATWAKGRFTISRDNSKNTVYLQMNSLRAEDTAVYYCARTVPGYSTAPYFDLWGQGTLVTVSS VL: DIQMTQSPSSVSASVGDRVTITCQSSPSVWSNFLSWYQQKPGKAPKLLIYEASKLTSGVPSRFSGSGSGTDFTLTISSLQPEDFATYYCGGGYVSISDTTFGGGTKVEIK ; field requested: kon
A. 52100

Q. Query (binder): CA645 gL4gH45 Fab (Fab, V domains shown, Fab: human gamma1 CH1, human kappa (Km3); Kabat numbering) VH: EVQLLESGGGLVQPGGSLRLSCAVSGIDLSNYAINWVRQAPGKGLEWIGIIWASGTTFYATWAKGRFTISRDNSKNTVYLQMNSLRAEDTAVYYCARTVPVYSTAPYFDLWGQGTLVTVSS VL: DIQMTQSPSSVSASVGDRVTITCQSSPSVWSNFLSWYQQKPGKAPKLLIYEASKLTSGVPSRFSGSGSGTDFTLTISSLQPEDFATYYCGGGYSSISDTTFGGGTKVEIK ; field requested: kon
A. 53800

Q. Query (binder): CA645 gL10gH5 Fab (Fab, V domains shown, Fab: human gamma1 CH1, human kappa (Km3); Kabat numbering) VH: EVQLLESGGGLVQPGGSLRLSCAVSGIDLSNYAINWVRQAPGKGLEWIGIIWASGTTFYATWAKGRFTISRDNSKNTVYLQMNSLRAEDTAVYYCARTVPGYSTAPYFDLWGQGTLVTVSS VL: DIQMTQSPSSVSASVGDRVTITCQSSPAVWSNFLSWYQQKPGKAPKLLIYEASKLTSGVPSRFSGSGSGTDFTLTISSLQPEDFATYYCGGGYSSISDTTFGGGTKVEIK ; field requested: kon
A. 138000
